What follows is a record of IC50 for lck-SH2 (Homo sapiens, UniProt P06239).
Could you write the number and then its unit?

Molecule	IC50
CC[C@H](C)[C@H](NC(=O)CN1C(=O)C(NC(=O)[C@H](Cc2ccc(OP(=O)(O)O)cc2)NC(C)=O)N=C(c2ccccc2)c2ccccc21)C(=O)OC (some centres unmarked) [compound 36]	271 µM

Identify the reported IC50 for the following entry. CC[C@H](C)[C@H](NC(=O)CN1C(=O)C(NC(=O)[C@H](Cc2ccc(OP(=O)(O)O)cc2)NC(=O)OCC2c3ccccc3-c3ccccc32)N=C(c2ccccc2)c2ccccc21)C(=O)OC (some centres unmarked) [FMOC-derivative]
48.2 µM
